Each record here notes measured Plasma Protein Binding Fu ± SD.
tested on: human plasma proteins; experiment: Plasma protein binding by equilibrium dialysis, human plasma; type: in vitro ADME; details: human plasma, 5 μM, fraction unbound
Hey, just send me the number, nothing else.

Some compounds with known Plasma Protein Binding Fu ± SD results, for comparison:
>>> value("CCC(C1=C(O)CC(CCCNC(=O)OC)(CCc2ccccc2)OC1=O)c1cccc(NS(=O)(=O)c2ccc(C(F)(F)F)cn2)c1 (mixture of isomers)")
0.0105
>>> value("CCC(C1=C(O)CC(CCCNC(=O)OCCOC)(CCc2ccccc2)OC1=O)c1cccc(NS(=O)(=O)c2ccc(C(F)(F)F)cn2)c1 (mixture of isomers)")
0.0145

Could you now look at the following compound, please?
Here CCCC1(CCc2ccccc2)CC(O)=C(C(CC)c2cccc(N(CCOCCOCCOCCOCCOC)S(=O)(=O)c3ccc(C(F)(F)F)cn3)c2)C(=O)O1 (stereo not drawn) [mPEG5-amide-Tipranavir] was tested on human plasma proteins, and its Plasma Protein Binding Fu ± SD came to 0.0308

# credit: patent US10806794B2
